This section presents molecules with their documented IC50 values.
Tested on: TRAF1
Assay type: cell-based, human
assay-setup: Homo sapiens, Raji, 24 h, read-out: IC50 for reducing TRAF1
Express your answer in µM, writing the number without its unit.

Consider the reported IC50 for these molecules:
CC(C)c1cc(CNc2nc(Nc3cc(C4CC4)[nH]n3)cc(N3CCN(C)CC3)n2)on1
2.3
Cn1ncc(Cl)c1-c1cc(C(=O)N[C@H](CN)Cc2ccc(F)c(F)c2)oc1Cl
4.9

Please examine the following record next.
Task item: Query the reported IC50 for TRAF1; item: CC(=O)c1cnc2ccc(-c3cc(Cl)c(O)c(Cl)c3)nc2c1N[C@H]1CC[C@H](CN(C)C)CC1
Reply: 0.018
